All values here come from patent US20250277029A1.

Examples of binders with documented n = 2 IC50 (nM), cAMP antagonist assay follow.
Study target: human cannabinoid receptor 1 (huCB1), full length, expressed on cells (human, UniProt P21554 1-472)
Sequence (P21554 whole entry): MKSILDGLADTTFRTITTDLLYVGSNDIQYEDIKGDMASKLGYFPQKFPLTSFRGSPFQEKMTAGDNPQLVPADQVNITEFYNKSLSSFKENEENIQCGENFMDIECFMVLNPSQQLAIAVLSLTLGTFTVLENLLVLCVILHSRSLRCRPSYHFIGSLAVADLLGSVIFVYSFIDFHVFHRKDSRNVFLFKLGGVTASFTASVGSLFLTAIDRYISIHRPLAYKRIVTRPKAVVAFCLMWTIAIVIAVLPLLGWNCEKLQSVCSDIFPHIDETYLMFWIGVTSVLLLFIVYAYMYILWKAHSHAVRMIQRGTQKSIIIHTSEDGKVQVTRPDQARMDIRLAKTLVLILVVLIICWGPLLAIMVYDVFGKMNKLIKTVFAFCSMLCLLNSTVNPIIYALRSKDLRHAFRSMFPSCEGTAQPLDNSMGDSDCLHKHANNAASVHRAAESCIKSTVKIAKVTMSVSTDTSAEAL
Test description: cell-based or functional assay
# output: numeric value plus its unit

# example entries with known answers
LIBC527869-1 (antibody, V domains shown) VH: QVQLQESGPGLVKPSQTLSLTCTVSGGNIRRGGDYWAWIRQHPGKGLEWIGHIYHTGKTNYNPSFKGRATISVKTYKNQFSLKLSSVTAADTAVYYCARNYDTLSGNSYYYYGMDVWGQGTTVTVSS VL: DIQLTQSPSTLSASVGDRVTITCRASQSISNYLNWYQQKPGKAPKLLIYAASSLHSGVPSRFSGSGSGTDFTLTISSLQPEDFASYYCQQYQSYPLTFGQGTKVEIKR ... 36.2 nM
LIBC528116-1 (antibody, V domains shown, Expressed as IgG1 SEFL2 mAb; also called 37940-4) VH: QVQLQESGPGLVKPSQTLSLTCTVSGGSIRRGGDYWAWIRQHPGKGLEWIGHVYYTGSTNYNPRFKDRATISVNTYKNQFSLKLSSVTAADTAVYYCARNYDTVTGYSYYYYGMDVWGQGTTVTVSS VL: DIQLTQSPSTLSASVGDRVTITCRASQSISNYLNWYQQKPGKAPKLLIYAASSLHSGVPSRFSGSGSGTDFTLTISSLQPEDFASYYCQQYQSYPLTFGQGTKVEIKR ... 0.88 nM

Okay, next one:
Query string: Using known records, supply n = 2 IC50 (nM), cAMP antagonist assay for LIBC523596-1 (antibody, V domains shown) VH: QVQLQESGPGLVKPSQTLSLTCTVSGGSIRRGGDYWSWIRQHPGKGLEWIGHVYQSGQTAYNPNFEDRATISVNTYKNQFSLKLSSVTAADTAVYYCAREYDVVSGYSYYYYGMDVWGQGTTVTVSS VL: DIVMTQSPLSLPVTPGEPASISCRSSQSLLTSSGYNYVDWYLQKPGQSPQLLIYQGSNRASGVPDRFSGSGSGTDFTLKISRVEAEDVGVYYCMQAVKIPRTFGQGTKVEIKR
Result string: 4 nM
